Source: patent US20090291945A1

Biological target: cathepsin K (Homo sapiens)
Construct: the active enzyme was obtained as the enzyme fraction by using detergent containing lysis buffer; made in house; host or cells: HEK293T (GenHunter Corporation), transient expression; detergent lysate used as enzyme fraction
Experiment: Cathepsin K inhibitory activity (fluorescent substrate Z-Leu-Arg-MCA)
Format: biochemical
Conditions: enzyme expressed in HEK293T; 15 min preincubation, 30 min reaction at room temperature, pH 5.5; read-out: Activity Intensity (cathepsin K inhibitory activity, pIC50 class) (converted)
Experimental: Cathepsin K inhibitory activities of the compounds synthesized according to the methods of the above examples were measured. […] To the enzyme solution A (38.4 μL) were added the test compound solutions B (1.6 μL) and mixed individually. […] The enzyme activity with using DMSO instead of the test compound solution B was taken as 100% and the inhibitory rates at each concentration of the test compound were calculated. […] The 50% inhibitory concentration against cathepsin K was calculated from this curve. […]
Catalogue of compounds with associated IC50
METRIC_NAME: IC50

structure_smiles=CC[C@@H](CNc1ccccc1N1CCOCC1)NC(=O)[C@H](CC(C)C)N[C@@H](c1ccccc1)C(F)(F)F metric_name=IC50 observed="31.6 to 10000 nM"
structure_smiles=CC(C)C[C@H](N[C@@H](c1ccccc1)C(F)(F)F)C(=O)N[C@@H](CCCCN)CNc1ccc(N2CCOCC2)cc1 metric_name=IC50 observed="≤ 3.16 nM"
structure_smiles=COc1ccc(NC[C@H](COCc2ccccc2)NC(=O)[C@H](CC(C)(C)F)N[C@@H](c2ccc(-c3ccc(S(C)(=O)=O)cc3)cc2)C(F)(F)F)cc1 metric_name=IC50 observed="31.6 to 10000 nM"

---

Catalogue of molecules with associated IC50
Target: cathepsin K (Homo sapiens, UniProt P43235)
Construct: the active enzyme was obtained as the enzyme fraction by using detergent containing lysis buffer; made in house; host or cells: HEK293T (GenHunter Corporation), transient expression; detergent lysate used as enzyme fraction
Sequence (P43235 115-329): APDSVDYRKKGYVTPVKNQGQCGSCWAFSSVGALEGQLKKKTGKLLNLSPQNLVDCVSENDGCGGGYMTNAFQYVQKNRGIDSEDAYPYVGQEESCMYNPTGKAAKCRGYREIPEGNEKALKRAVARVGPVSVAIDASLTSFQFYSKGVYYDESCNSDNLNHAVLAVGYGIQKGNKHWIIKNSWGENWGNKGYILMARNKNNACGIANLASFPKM
Assay: Cathepsin K inhibitory activity (fluorescent substrate Z-Leu-Arg-MCA)
Assay type: biochemical
Details: enzyme expressed in HEK293T; 15 min preincubation, 30 min reaction at room temperature, pH 5.5; read-out: Activity Intensity (cathepsin K inhibitory activity, pIC50 class) (converted)
METRIC_NAME: IC50

molecule="COc1ccc(NC[C@H](CC[S+](C)[O-])NC(=O)[C@H](CC(C)C)N[C@@H](c2ccccc2)C(F)(F)F)c(OC)c1 (stereo partly shown)" metric_name=IC50 observed="31.6 to 10000 nM"
molecule=CCOc1ccc(NC[C@H](CC)NC(=O)[C@H](CC(C)(C)F)N[C@@H](c2ccc(-c3ccc(S(C)(=O)=O)cc3)cc2)C(F)(F)F)cc1OCC metric_name=IC50 observed="≤ 3.16 nM"
molecule=CC(C)C[C@H](N[C@@H](c1ccccc1)C(F)(F)F)C(=O)N[C@@H](CNC(=O)OCc1ccccc1)CNc1ccc(N2CCOCC2)cc1 metric_name=IC50 observed="≤ 3.16 nM"
molecule=CC[C@@H](CNc1ccc(N2CCOCC2)cc1)NC(=O)[C@H](CC(C)C)N[C@@H](Cc1ccccc1)C(F)(F)F metric_name=IC50 observed="≤ 3.16 nM"
molecule=CC[C@@H](CNc1ccc(OC(C)(C)C(=O)O)cc1OC)NC(=O)[C@H](CC(C)(C)F)N[C@@H](c1ccccc1)C(F)(F)F metric_name=IC50 observed="3.16 to 31.6 nM"
molecule=COc1ccc([C@H](N[C@@H](CC(C)C)C(=O)N[C@@H](CCSC)CNc2ccc(OC)cc2OC)C(F)(F)F)cc1 metric_name=IC50 observed="3.16 to 31.6 nM"
molecule=CC[C@@H](CNc1ccc(N2CCOCC2)cc1)NC(=O)[C@H](CC(C)C)N[C@@H](c1ccc(F)cc1)C(F)(F)F metric_name=IC50 observed="≤ 3.16 nM"
molecule=CC[C@@H](CNc1ccc(N2CCO[C@@H](C(=O)O)C2)cc1)NC(=O)[C@H](CC(C)C)N[C@@H](c1ccccc1)C(F)(F)F metric_name=IC50 observed="≤ 3.16 nM"
molecule=CC[C@@H](CNc1ccc(N2CCC[C@@H](C(=O)O)C2)cc1)NC(=O)[C@H](CC(C)C)N[C@@H](c1ccccc1)C(F)(F)F metric_name=IC50 observed="≤ 3.16 nM"
molecule=COc1ccc(NC[C@H](CCS(C)(=O)=O)NC(=O)[C@H](CC(C)C)N[C@@H](c2ccc(=O)[nH]c2)C(F)(F)F)c(OC)c1 metric_name=IC50 observed="31.6 to 10000 nM"
molecule=CC(C)C[C@H](N[C@@H](c1ccccc1)C(F)(F)F)C(=O)N[C@@H](CCCC(=O)OC(C)(C)C)CNc1ccc(N2CCOCC2)cc1 metric_name=IC50 observed="≤ 3.16 nM"
molecule=CC[C@@H](CNc1ccc(OC)cc1OC)NC(=O)[C@H](CC(C)(C)F)N[C@@H](c1ccc(Br)cc1)C(F)(F)F metric_name=IC50 observed="≤ 3.16 nM"
molecule=CN(C)C[C@@H](CNc1ccc(N2CCOCC2)cc1)NC(=O)[C@H](CC(C)(C)F)N[C@@H](c1ccccc1)C(F)(F)F metric_name=IC50 observed="≤ 3.16 nM"
